Source: patent US20110195911A1

tested on: MCF-7 breast cancer cells; assay: MTT cell toxicity assay in MCF-7 breast cancer cells; assay type: cell-based; settings: MCF-7 cells, MTT, final 0.5% FBS, two days with compound; concentration of total growth inhibition (cytostatic)
Where a SMILES comes first, the peptide text is derived from it. The star is where a group is joined. Palmitoyl = CCCCCCCCCCCCCCCC(=O)*
Provide the reported TGI of each item.

In plain terms, CCCCCCCCCCCCCCCC(=O)N[C@@H](Cc1c[nH]cn1)C(=O)N[C@@H](CCCNC(=N)N)C(=O)N[C@@H](CCCCN)C(=O)N[C@@H](CCCNC(=N)N)C(=O)N[C@@H](CC(N)=O)C(=O)N[C@@H](CC(N)=O)C(=O)N[C@@H](CO)C(=O)N[C@@H](CCCNC(=N)N)C(=O)N[C@@H](CC(C)C)C(=O)NCC(=O)N[C@@H](CC(N)=O)C(=O)NCC(=O)N[C@H](C(=O)N[C@@H](CC(C)C)C(=O)N[C@@H](Cc1ccc(O)cc1)C(N)=O)C(C)C [Peptide 9, Pal-HRKRNNSRLGNGVLY-NH2] (Palmitoyl-HRKRNNSRLGNGVLY-NH2) has a documented TGI of >5 µM

Briefly, TGI measured for CCCCCCCCCCCCCCCC(=O)N[C@@H](CCCNC(=N)N)C(=O)N[C@@H](CC(C)C)C(=O)NCC(=O)N[C@@H](CC(N)=O)C(=O)NCC(=O)N[C@H](C(=O)N[C@@H](CC(C)C)C(=O)N[C@@H](Cc1ccc(O)cc1)C(N)=O)C(C)C [Peptide 20, Pal-RLGNGVLY-NH2] (Palmitoyl-RLGNGVLY-NH2) : >5 µM

The value of TGI measured for the molecule CCCCCCCCCCCCCCCC(=O)N[C@@H](Cc1c[nH]cn1)C(=O)N[C@@H](CCCNC(=N)N)C(=O)N[C@@H](CCCCN)C(=O)N[C@@H](CCCNC(=N)N)C(=O)N[C@@H](CC(N)=O)C(=O)N[C@@H](CC(N)=O)C(=O)N[C@@H](CO)C(=O)N[C@@H](CCCNC(=N)N)C(=O)N[C@@H](CC(C)C)C(=O)NCC(=O)N[C@@H](CC(N)=O)C(=O)NCC(=O)N[C@H](C(=O)N[C@@H](CC(C)C)C(=O)N[C@@H](Cc1ccc(O)cc1)C(=O)N[C@@H](C)C(N)=O)C(C)C [Peptide 8, Pal-HRKRNNSRLGNGVLYA-NH2] (Palmitoyl-HRKRNNSRLGNGVLYA-NH2) turned out to be >5 µM
